MEASUREMENT KIND: melting point

Clc1nnc2ccc(Oc3cc(NCCC4CCCCC4)ccc3-c3ccccc3)nn12 | 154 to 159 °C

Request: Need melting point, item Clc1ccccc1-c1cccc(Oc2ccc3nnc(Cl)n3n2)c1
Response: 82.4 °C

Request: Further, for COc1cccc(-c2cc(F)ccc2Oc2ccc3nnc(C(F)(F)F)n3n2)c1 ?
Response: 73.7 to 76.9 °C

Request: Further, for COc1ncc(C)cc1-c1ccc(C(F)(F)F)cc1Oc1cc(C)c2nnc(Cl)n2n1 ?
Response: 117 to 119 °C

Request: Further, for Cc1cc2nnc(C(F)(F)F)n2nc1Oc1cc(C(F)(F)F)ccc1-c1cncnc1 ?
Response: 174 to 179 °C
